tested on: MKN74; assay: Cell viability drug screen, 12-point dose-response AUC; format: cell-based, human; conditions: MKN74 cells; 72 hours
Structures can show the parent of a compound that is named as a salt.
Kindly apply the following: Satisfied if Average Area Under the Viability Curve (AUC), AUC norm value is less than -0.2, Not satisfied in every other case.

| compound | label.value |
| --- | --- |
| CC(C)n1nc(-c2ccc3oc(N)nc3c2)c2c(N)ncnc21 | Satisfied |
| CCCCc1oc2ccc(NS(C)(=O)=O)cc2c1C(=O)c1ccc(OCCCN(CCCC)CCCC)cc1 [Dronedarone HCl (Multaq), Dronedarone HCl] | Satisfied |
| COC(=O)Nc1nc2ccc(C(=O)c3cccs3)cc2[nH]1 | Not satisfied |
| CCCCCCCCCCCCCCCC[N+](C)(C)CCN(Cc1ccc(OC)cc1)c1ncccn1 [Thonzonium Bromide] | Satisfied |
| c1ccc2c(-c3cnn4cc(-c5ccc(N6CCNCC6)cc5)cnc34)ccnc2c1 | Satisfied |

Hello, is Average Area Under the Viability Curve (AUC), AUC norm value of the following compound strictly smaller than -0.2? Nc1nc(F)nc2c1ncn2[C@@H]1O[C@H](COP(=O)(O)O)[C@@H](O)[C@@H]1O [Fludarabine Phosphate (Fludara), Fludarabine Phosphate] Not satisfied

Could you please tell me whether Average Area Under the Viability Curve (AUC), AUC norm value recorded for CCCCCCCCCCCCCCCC[n+]1ccccc1 [Cetylpyridinium Chloride] is less than -0.2? Satisfied

Is the reported Average Area Under the Viability Curve (AUC), AUC norm value for `Cc1ccc(S(=O)(=O)/C=C/C#N)cc1` strictly below -0.2? Not satisfied

Is Average Area Under the Viability Curve (AUC), AUC norm value of CC(C)(C)c1ccc(C(O)CCCN2CCC(C(O)(c3ccccc3)c3ccccc3)CC2)cc1 (stereo not drawn) strictly below -0.2? Satisfied

Is Average Area Under the Viability Curve (AUC), AUC norm value strictly under -0.2 for the entry `CN(C)Cc1c(C(=O)NCCOc2ccc(C(=O)NO)cc2)oc2ccccc12` ? Not satisfied

----------
tested on: MKN28; assay: Cell viability drug screen, 12-point dose-response AUC; type: cell-based, human; conditions: MKN28 cells; 72 hours; 12-point dose-response
# maps each entry to its area under the viability curve (AUC), normalized

Field: example entries. Status: answers known.
| compound | experimental.result |
| --- | --- |
| COc1ncc(-c2ccc3nccc(-c4ccnnc4)c3c2)cc1NS(=O)(=O)c1ccc(F)cc1F | 0.15 |
| C#Cc1cccc(Nc2ncnc3cc(OC)c(OCCCCCCC(=O)NO)cc23)c1 | −0.7663 |
| COCCn1c2c([n+](Cc3cnccn3)c1C)C(=O)c1ccccc1C2=O | −1.021 |

Requested read-out: area under the viability curve (AUC), normalized. Entry: `Cc1ccc(C(=O)N(CCCN)[C@@H](c2oc3cc(Cl)ccc3c(=O)c2Cc2ccccc2)C(C)C)cc1` −1.699

----------
tested on: NCC19; experiment: Cell viability drug screen, 12-point dose-response AUC; assay type: cell-based, human; settings: NCC19 cells; 72 hours
Structures can show the parent of a compound that is named as a salt.
Cut-off 0.9 on Average Area Under the Viability Curve (AUC), AUC norm value, inclusive. At or above means MET; below means NOT MET.

| compound | assay.target | label.value |
| --- | --- | --- |
| COc1cccc2c1C(=O)c1c(O)c3c(c(O)c1C2=O)C[C@@](O)(C(C)=O)C[C@@H]3O[C@H]1C[C@H](N)[C@H](O)[C@H](C)O1 [Daunorubicin HCl (Daunomycin HCl), Daunorubicin HCl] | NCC19 | MET |
| CC(C)n1nc(-c2ccc3oc(N)nc3c2)c2c(N)ncnc21 [INK 128 (MLN0128), INK 128] | NCC19 | NOT MET |
| COc1cc([C@@H]2c3cc4c(cc3[C@@H](O[C@@H]3O[C@@H]5CO[C@@H](c6cccs6)O[C@H]5[C@H](O)[C@H]3O)[C@H]3COC(=O)[C@H]23)OCO4)cc(OC)c1O [Teniposide (Vumon), Teniposide] | NCC19 | MET |
| CCCCC(CC)CNC(=N)NC(=N)NCCCCCCNC(=N)NC(=N)NCC(CC)CCCC (centres unmarked) [Alexidine HCl] | NCC19 | MET |

Test whether the compound O=C(Nc1c[nH]nc1-c1nc2ccc(CN3CCOCC3)cc2[nH]1)NC1CC1 [AT9283] records Average Area Under the Viability Curve (AUC), AUC norm value of 0.9 or higher. MET

Check the entry CC(C)[C@H](C(=O)Nc1ccc(C(=O)NO)cc1)c1ccccc1 [AR-42 (HDAC-42), AR-42] : does Average Area Under the Viability Curve (AUC), AUC norm value equal or exceed 0.9? MET

Record CC(C)C[C@H](NC(=O)CNC(=O)c1cc(Cl)ccc1Cl)B1OC(=O)C(CC(=O)O)(CC(=O)O)O1 [MLN9708] ; criterion: Average Area Under the Viability Curve (AUC), AUC norm value no lower than 0.9. Met? NOT MET

Could you tell me if the measured Average Area Under the Viability Curve (AUC), AUC norm value of CC[C@@H]1C(=O)N(C)c2cnc(Nc3ccc(C(=O)NC4CCN(C)CC4)cc3OC)nc2N1C1CCCC1 [BI 2536] reaches 0.9 or more? MET

Decide: is the reported value of Average Area Under the Viability Curve (AUC), AUC norm value for c1ccc2c(-c3cnn4cc(-c5ccc(N6CCNCC6)cc5)cnc34)ccnc2c1 [LDN193189] equal to or greater than 0.9? NOT MET

# check: Average Area Under the Viability Curve (AUC), AUC norm value of NC(=O)Nc1cc(-c2cccc(F)c2)sc1C(=O)N[C@H]1CCCNC1 [AZD7762] is greater than or equal to 0.9 MET

Is Average Area Under the Viability Curve (AUC), AUC norm value at least 0.9? Consider CCCCCCCCCCCCCCCC[N+](C)(C)CCN(Cc1ccc(OC)cc1)c1ncccn1 [Thonzonium Bromide] NOT MET

Please indicate if the recorded Average Area Under the Viability Curve (AUC), AUC norm value for COc1cc(N2CCC(N3CCN(C)CC3)CC2)ccc1Nc1ncc(Cl)c(Nc2ccccc2S(=O)(=O)C(C)C)n1 [TAE684 (NVP-TAE684), TAE684] meets or exceeds 0.9. MET

Check this compound for Average Area Under the Viability Curve (AUC), AUC norm value at or above 0.9: COc1cccc2c1C(=O)c1c(O)c3c(c(O)c1C2=O)C[C@@](O)(C(=O)CO)C[C@@H]3O[C@H]1C[C@H](N)[C@H](O)[C@H](C)O1 [Doxorubicin (Adriamycin), Doxorubicin] MET

Item O=C(/C=C/c1cccnc1)NCCCCC1CCN(C(=O)c2ccccc2)CC1 [APO866 (FK866), APO866] with Average Area Under the Viability Curve (AUC), AUC norm value of 0.9 or above? NOT MET

----------
tested on: MKN28; assay: Cell viability drug screen, 12-point dose-response AUC; assay type: cell-based, human; conditions: MKN28 cells; 72 hours
measurement.label: Average Area Under the Viability Curve (AUC), AUC norm value
The answer should be written as a number, with no unit following it.

| molecule | experimental.result |
| --- | --- |
| NC(=O)Nc1cc(-c2cccc(F)c2)sc1C(=O)N[C@H]1CCCNC1 | −0.3131 |

Can you look up the measured Average Area Under the Viability Curve (AUC), AUC norm value of `Cc1ccc(S(=O)(=O)/C=C/C#N)cc1` for me? −0.1987

Query: Average Area Under the Viability Curve (AUC), AUC norm value; subject: `CC(C)C[C@H](NC(=O)CNC(=O)c1cc(Cl)ccc1Cl)B1OC(=O)C(CC(=O)O)(CC(=O)O)O1` 0.1368

For `CC(C)C[C@H](NC(=O)[C@H](CCc1ccccc1)NC(=O)CN1CCOCC1)C(=O)N[C@@H](Cc1ccccc1)C(=O)N[C@@H](CC(C)C)C(=O)[C@@]1(C)CO1` , what is its reported Average Area Under the Viability Curve (AUC), AUC norm value? −0.7065

Entry under review: `CC[C@@H]1C(=O)N(C)c2cnc(Nc3ccc(C(=O)NC4CCN(C)CC4)cc3OC)nc2N1C1CCCC1` . Reported Average Area Under the Viability Curve (AUC), AUC norm value? −1.69

Can you look up the measured Average Area Under the Viability Curve (AUC), AUC norm value of CCCCCCCCCCCCCCCC[n+]1ccccc1 [Cetylpyridinium Chloride] for me? 0.4876

// query Average Area Under the Viability Curve (AUC), AUC norm value value for entry `CCOc1cc2ncc(C#N)c(Nc3ccc(OCc4ccccn4)c(Cl)c3)c2cc1NC(=O)/C=C/CN(C)C` 0.1864

----------
test system: SNU601; experiment: Cell viability drug screen, 12-point dose-response AUC; format: cell-based, human; conditions: SNU601 cells; 72 hours
Counter-ions that a name gives are not always drawn.
Quick rule: Average Area Under the Viability Curve (AUC), AUC norm value of at least 0.7 means criterion met, below that means criterion not met.

Example entries and their recorded answers appear below.
| compound | label.value |
| --- | --- |
| O=C(Nc1ccc([N+](=O)[O-])cc1Cl)c1cc(Cl)ccc1O [Niclosamide (Niclocide), Niclosamide] | criterion met |
| CC[C@@H]1C(=O)N(C)c2cnc(Nc3ccc(C(=O)NC4CCN(C)CC4)cc3OC)nc2N1C1CCCC1 | criterion not met |
| CCCCc1oc2ccc(NS(C)(=O)=O)cc2c1C(=O)c1ccc(OCCCN(CCCC)CCCC)cc1 [Dronedarone HCl (Multaq), Dronedarone HCl] | criterion met |

Could you verify whether the entry `CC(C)[C@H](C(=O)Nc1ccc(C(=O)NO)cc1)c1ccccc1` shows Average Area Under the Viability Curve (AUC), AUC norm value of no less than 0.7? criterion met

hey, is Average Area Under the Viability Curve (AUC), AUC norm value for this one >= 0.7? `O=C(/C=C/c1cccc(S(=O)(=O)Nc2ccccc2)c1)NO` criterion met

Item CCCCCCCCCCCCCCCC[N+](C)(C)CCN(Cc1ccc(OC)cc1)c1ncccn1 [Thonzonium Bromide] with Average Area Under the Viability Curve (AUC), AUC norm value of 0.7 or above? criterion met

Hi, just wondering whether `Cc1ccc(S(=O)(=O)/C=C/C#N)cc1` shows Average Area Under the Viability Curve (AUC), AUC norm value of 0.7 or higher. criterion met

Exam item: decide whether the reported Average Area Under the Viability Curve (AUC), AUC norm value for `CC(C)C[C@H](NC(=O)CNC(=O)c1cc(Cl)ccc1Cl)B1OC(=O)C(CC(=O)O)(CC(=O)O)O1` is at least 0.7. criterion not met

Determine whether this compound has Average Area Under the Viability Curve (AUC), AUC norm value no lower than 0.7: CC(C)(C)c1ccc(C(O)CCCN2CCC(C(O)(c3ccccc3)c3ccccc3)CC2)cc1 (centres unmarked) criterion met
